# system.name: D(1A) dopamine receptor (Homo sapiens)
# assay.notes: Antagonist of Human D 1 Dopamine Receptor: qHTS; also: % is scaled to controls: 0 for no effect and ±100 for the full control effect
# reported.conditions: HEK293 TREx D1 cells, calcium flux, dopamine EC80; at 10 µM
Out of some 360,000 compounds screened, about 11,000 (3.1%) were called active. Rule as the data show it: active = activity change below about -30%; inactive = the rest. The entries come from a sample that favours actives as a whole.
Hi there, use one of these labels in your reply, thanks! 1 = active, 0 = inactive

Prompt line: Name the outcome recorded for COCCNC(=O)c1snc2ccc(Cl)cc12 in the assay.
Response line: 1

Prompt line: What classification did COc1cc(Cl)c(C)cc1Nc1nnc(-n2nc(C)cc2C)c2ccccc12 end up with in this test?
Response line: 0

Prompt line: I would be grateful if you could indicate the recorded call for COCCNC(=O)c1cc(-c2cccc(Cl)c2)on1 .
Response line: 0

Prompt line: Which outcome was assigned to COc1ccc(NC(=O)CSc2nnc(-c3nnn(-c4ccc(F)cc4)c3C)o2)cc1 in this test?
Response line: 0

Prompt line: Give the logged outcome of this assay for the following molecule: COC(=O)c1ccc(C2C(Oc3ccccc3C)C(=O)N2CCc2ccc(OC)c(OC)c2)cc1 (stereo not given)
Response line: 1

Prompt line: Called result for COc1ccc(CCNC(=O)C(=O)NCc2ccccc2C)cc1OC
Response line: 0

Prompt line: Give the logged outcome of this assay for the following molecule: COCCNC(=O)c1ccc(S(=O)(=O)c2ccc(Cl)cc2)c(NC(C)=O)c1
Response line: 0

Prompt line: Field: outcome | Entry: COc1ccc(CCN2C(=O)c3[nH]nc(-c4ccccc4O)c3C2c2ccc(C)cc2)cc1OC (stereo not given)
Response line: 0

Prompt line: GET /call?item= COc1ccc(S(=O)(=O)c2cn(C)c3cc(N4CCCCC4)c(F)cc3c2=O)cc1 returns the recorded outcome of this test.
Response line: 0

Prompt line: // param item: CSc1ccc(C2C(C(=O)Nc3ccccc3)=C(C)Nc3nc4ccccc4n32)cc1 (stereo not given) ; yields the recorded call
Response line: 0

* * *

Field: activity change, negative = inhibition. Provide a value for each of the compounds that follow.
# system.name: D(1A) dopamine receptor (Homo sapiens) (UniProt P21728)
# Sequence (P21728 whole entry, looked up): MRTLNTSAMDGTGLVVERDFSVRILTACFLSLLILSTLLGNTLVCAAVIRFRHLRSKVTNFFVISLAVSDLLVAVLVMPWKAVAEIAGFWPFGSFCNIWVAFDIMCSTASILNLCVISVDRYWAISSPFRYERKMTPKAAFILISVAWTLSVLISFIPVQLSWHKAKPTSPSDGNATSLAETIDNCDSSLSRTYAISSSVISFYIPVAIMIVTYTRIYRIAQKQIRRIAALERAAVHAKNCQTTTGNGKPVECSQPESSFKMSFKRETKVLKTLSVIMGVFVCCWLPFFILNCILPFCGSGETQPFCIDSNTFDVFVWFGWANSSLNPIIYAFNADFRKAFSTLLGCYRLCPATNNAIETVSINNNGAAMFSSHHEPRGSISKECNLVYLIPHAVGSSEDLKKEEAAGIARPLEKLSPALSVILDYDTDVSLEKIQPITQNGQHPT
# assay.notes: Antagonist of Human D 1 Dopamine Receptor: qHTS; also: % is scaled to controls: 0 for no effect and ±100 for the full control effect
# reported.conditions: HEK293 TREx D1 cells, calcium flux, dopamine EC80; at 10 µM; stronger effect = lower value
Hit rate of the full screen: of about 360,000 compounds, about 11,000 (3.1%) were called active. Only a selection was taken, and actives are over-represented in it overall.
Give the value in % but do not write % after it.

Prompt line: Form field: activity change, negative = inhibition recorded for CSc1ccccc1NC(=O)CCS(=O)(=O)c1nc(-c2cccs2)cc(C(F)(F)F)n1 with D(1A) dopamine receptor (Homo sapiens) (UniProt P21728) (enter value)
Response line: 2.34

Prompt line: # query: activity change, negative = inhibition | item COc1cc(CN(C(=O)c2ccccc2Br)c2ccccn2)cc(OC)c1OC | system: D(1A) dopamine receptor (Homo sapiens) (UniProt P21728)
Response line: -66.6

Prompt line: D(1A) dopamine receptor (Homo sapiens) (UniProt P21728) / activity change, negative = inhibition / CCC1CCCCN1C(=O)Cn1c(=O)n(CCCCCC(=O)NCc2ccccc2)c(=O)c2sccc21 (stereo not given) : value?
Response line: -26.9

Prompt line: Identify the measured activity change, negative = inhibition of CCn1cc(C(=O)N(C)Cc2ccccc2)c(=O)c2cc(S(=O)(=O)N3CCCCCC3)ccc21 for D(1A) dopamine receptor (Homo sapiens) (UniProt P21728).
Response line: -14.7

Prompt line: activity change, negative = inhibition of COc1ccc(-c2csc(-c3c(N)c(C(=O)c4ccc(OC)c(OC)c4)n4ccccc34)n2)cc1 on D(1A) dopamine receptor (Homo sapiens) (UniProt P21728)?
Response line: -1.18

Prompt line: // map COc1ccc(-c2onc(C)c2C)cc1S(=O)(=O)NCc1cccs1 to recorded activity change, negative = inhibition (system: D(1A) dopamine receptor (Homo sapiens) (UniProt P21728))
Response line: -23.8

Prompt line: Notebook: pull reported activity change, negative = inhibition for D(1A) dopamine receptor (Homo sapiens) (UniProt P21728), entry Cc1ccc(-c2nc3ccccn3c2Nc2c(C)cccc2C)o1
Response line: -2.58

Prompt line: D(1A) dopamine receptor (Homo sapiens) (UniProt P21728) / activity change, negative = inhibition / Cc1ccc(CN(C(=O)c2ccccc2[N+](=O)[O-])c2ccccn2)cc1 : value?
Response line: -7.2

Prompt line: GET /values?readout=activity change, negative = inhibition&system=D(1A) dopamine receptor (Homo sapiens) (UniProt P21728)&item= CCn1c(=O)c(=O)n(CC)c2cc(N3CCCCC3)c(NC(=O)c3cccc(F)c3)cc21
Response line: 4.44

Prompt line: Lab request: please report activity change, negative = inhibition under test system D(1A) dopamine receptor (Homo sapiens) (UniProt P21728) for CCS(=O)(=O)N1CCC(n2c(C)nc3cccnc32)CC1
Response line: 12.3

The measurements presented in this section are drawn from PubChem BioAssay AID504652.
